tested on: Human immunodeficiency virus 1; assay: Antiviral activity against Human immunodeficiency virus 1 3B infected in human MT4 cells stably transformed with HIV1 LTR-EGFP after 3 days by fluorescence microscopic analysis; type: functional, organism-based; details: MT4, 72 h
MEASURED ATTRIBUTE: EC50

The cases that follow already have their EC50 on record.
SMILES RECORD | MEASURED ATTRIBUTE | OBSERVED MEASUREMENT
CC(=O)Nc1ccnc(SC(F)(F)c2nc3ccccc3o2)n1 | EC50 | 43300 nM
Cc1ccnc(SC(F)(F)c2nc3c(C)cccc3o2)n1 | EC50 | 170 nM
Nc1ccnc(SC(F)(F)c2nc3c(Cl)cccc3o2)n1 | EC50 | > 28000 nM

Under Human immunodeficiency virus 1: EC50 value of "CC(C)c1ccnc(SC(F)(F)c2nc3ccccc3o2)n1" ?
130 nM

----------
assay: Lipophilicity, log D of the compound; type: physicochemical; conditions: octanol/water
MEASURED ATTRIBUTE: logD
Numbers only.

Could you share which logD value was measured for "Cc1ccnc(SC(F)(F)c2nc3ccccc3o2)n1" ?
3.9

----------
test: Dissociation constant, pKa of the compound; format: physicochemical
Hi there, I'd appreciate the recorded pKa for every entry that follows.
Answers are plain numbers.

For each entry beneath this line, provide reported pKa.
1. Cc1ccnc(SC(F)(F)c2nc3ccccc3o2)n1
2. Cc1cc(C)nc(SC(F)(F)c2nc3ccccc3o2)n1

3.6
1.3

----------
assay: Selectivity ratio of CC50 for mock-infected human MT4 cells to EC50 for Human immunodeficiency virus 1 3B infected in human MT4 cells; type: ADME, cell-based; details: read-out: Ratio CC50/EC50
MEASURED ATTRIBUTE: selectivity ratio

The cases that follow already have their selectivity ratio on record.
SMILES RECORD | OBSERVED MEASUREMENT
FC(F)(Sc1nccc(C2CC2)n1)c1nc2ccccc2o1 | 484
Cc1ccnc(S(=O)(=O)C(F)(F)c2nc3ccccc3o2)n1 | 8
CC(C)c1ccnc(SC(F)(F)c2nc3ccccc3o2)n1 | > 774
Cc1cccc2oc(C(F)(F)Sc3nccc(N)n3)nc12 | 24
Nc1ccnc(SC(F)(F)c2nc3c(Cl)cccc3o2)n1 | < 1
CC(=O)Nc1ccnc(SC(F)(F)c2nc3ccccc3o2)n1 | > 2.3
Nc1ccnc(SC(F)(F)c2nc3ccccc3o2)n1 | 129
Cc1ccnc(SC(F)(F)c2nc3cccc(C)c3o2)n1 | > 490
COCc1ccnc(SC(F)(F)c2nc3ccccc3o2)n1 | > 142
Cc1ccnc(SC(F)(F)c2nc3c(C)cccc3o2)n1 | > 570

For each entry beneath this line, provide reported selectivity ratio.
1. Cc1ccnc(SC(F)(F)c2nc3cccc(Cl)c3o2)n1
2. CCc1ccnc(SC(F)(F)c2nc3ccccc3o2)n1

> 700
> 15000

----------
test: Cytotoxicity against mock infected human MT4 cells after 3 days by EGFP fluorescence microscopic analysis; assay type: cell-based
MEASURED ATTRIBUTE: CC50 at 72 h

For each entry beneath this line, provide reported CC50 at 72 h.
1. Cc1cc(C)nc(SC(F)(F)c2nc3ccccc3o2)n1
2. Cc1ccnc(SC(F)(F)c2nc3c(C)cccc3o2)n1
3. Nc1ccnc(SC(F)(F)c2nc3ccccc3o2)n1

> 98.4 µM
> 98.4 µM
33.5 µM

Measured values drawn from ChEMBL document CHEMBL1921681 for this set.
